Kindly supply the reported AC50 values for the records listed here.
Biological target: Sodium-dependent serotonin transporter (Homo sapiens); note: assay procedure not described here
Sequence (P31645 whole entry): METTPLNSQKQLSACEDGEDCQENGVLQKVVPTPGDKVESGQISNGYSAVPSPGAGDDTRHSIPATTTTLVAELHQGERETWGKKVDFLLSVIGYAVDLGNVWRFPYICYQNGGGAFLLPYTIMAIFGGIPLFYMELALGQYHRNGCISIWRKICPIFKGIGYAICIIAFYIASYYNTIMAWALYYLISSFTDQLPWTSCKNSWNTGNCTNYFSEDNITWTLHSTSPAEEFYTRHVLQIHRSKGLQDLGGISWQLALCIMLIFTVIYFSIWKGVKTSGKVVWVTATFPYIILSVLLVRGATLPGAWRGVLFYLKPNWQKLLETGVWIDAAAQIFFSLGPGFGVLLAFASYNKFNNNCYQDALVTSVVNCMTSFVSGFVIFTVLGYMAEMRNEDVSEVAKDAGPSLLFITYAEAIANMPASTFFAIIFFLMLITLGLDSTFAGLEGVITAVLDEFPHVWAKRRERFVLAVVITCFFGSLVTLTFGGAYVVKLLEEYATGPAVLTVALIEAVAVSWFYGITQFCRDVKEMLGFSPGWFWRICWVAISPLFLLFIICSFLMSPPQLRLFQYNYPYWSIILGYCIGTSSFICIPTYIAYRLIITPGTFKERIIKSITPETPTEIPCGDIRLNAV

Some compounds with known AC50 results, for comparison:
- compound: "Nc1nc(NC2CC2)c2ncn([C@H]3C=C[C@@H](CO)C3)c2n1 [ABACAVIR]"
  AC50: "> 30 µM"
- compound: "Cn1nnc2c(C(N)=O)ncn2c1=O [TEMOZOLOMIDE]"
  AC50: "> 30 µM"
- compound: "O=C(NCCNCC(O)COc1ccc(O)cc1)N1CCOCC1 (stereo not drawn) [XAMOTEROL]"
  AC50: "> 30 µM"
- compound: "CO/N=C(\\C(=O)N[C@@H]1C(=O)N2C(C(=O)O)=C(CSc3nnnn3C)CS[C@H]12)c1csc(N)n1 [CEFMENOXIME]"
  AC50: "> 30 µM"

Okay, here is my list. What is AC50 for each of these?
1. O=C(O)C1=C(CSc2nnnn2CS(=O)(=O)O)CS[C@@H]2[C@H](NC(=O)[C@H](O)c3ccccc3)C(=O)N12 [CEFONICID]
2. C[C@H]1COc2c(C3(N)CC3)c(F)cc3c(=O)c(C(=O)O)cn1c23 [PAZUFLOXACIN]
3. O=[N+]([O-])O[C@@H]1CO[C@H]2[C@@H]1OC[C@@H]2O [ISOSORBIDE MONONITRATE]

Response:
30 µM
> 10 µM
> 10 µM

Could I get AC50 for every one of these entries?
1. O=C(O[C@H]1C[C@H]2CC[C@@H](C1)[N+]21CCCC1)C(O)(c1ccccc1)c1ccccc1 [TROSPIUM]
2. C[C@H](N)[C@H](O)c1cccc(O)c1 [METARAMINOL]
3. COc1ccc(CCNCC(O)COc2cccc(C)c2)cc1OC (stereo not drawn) [BEVANTOLOL]
4. O=C1C(O)=C([C@H]2CC[C@H](c3ccc(Cl)cc3)CC2)C(=O)c2ccccc21 [ATOVAQUONE]

Response:
> 30 µM
> 10 µM
3 µM
> 30 µM

Can you give me AC50 for all of these, one by one?
1. COc1ccc(C(=O)Nc2ccccc2CCC2CCCCN2C)cc1 (stereo not drawn) [ENCAINIDE]
2. O=C(OCC(O)CO)c1ccccc1Nc1ccnc2cc(Cl)ccc12 (stereo not drawn) [GLAFENINE]
3. O=C(O)CCCCCCCC(=O)O [AZELAIC ACID]
4. CCCCc1ncc(/C=C(\Cc2cccs2)C(=O)O)n1Cc1ccc(C(=O)O)cc1 [EPROSARTAN]

Response:
["> 10 µM", "> 30 µM", "> 10 µM", "> 30 µM"]

For each listed entry, give its AC50.
1. c1cnc(N2CCN(Cc3ccc4c(c3)OCO4)CC2)nc1 [PIRIBEDIL]
2. CC1(C)CCC(CN2CCN(c3ccc(C(=O)NS(=O)(=O)c4ccc(NCC5CCOCC5)c([N+](=O)[O-])c4)c(Oc4cnc5[nH]ccc5c4)c3)CC2)=C(c2ccc(Cl)cc2)C1 [VENETOCLAX]
3. COc1ccccc1N1CCN(CCCNc2cc(=O)n(C)c(=O)n2C)CC1

Response:
1: 12 µM; 2: > 30 µM; 3: 9.5 µM

----------
Record type: AC50 measurement. Applies to: D(3) dopamine receptor (Homo sapiens)

- molecule: "Cc1cc(O)c(C(=O)N[C@@H](C(=O)N[C@@H]2C(=O)N3C(C(=O)O)=C(CSc4nnnn4C)CS[C@H]23)c2ccc(O)cc2)cn1 [CEFPIRAMIDE]"
  experimental target: "D(3) dopamine receptor (Homo sapiens)"
  AC50: "> 30 µM"
- molecule: "COc1ccc(C(=O)Nc2ccccc2CCC2CCCCN2C)cc1 (stereo not given) [ENCAINIDE]"
  experimental target: "D(3) dopamine receptor (Homo sapiens)"
  AC50: "> 10 µM"
- molecule: "CC[C@@H]1C(=O)OC[C@@H]1Cc1cncn1C"
  experimental target: "D(3) dopamine receptor (Homo sapiens)"
  AC50: "> 30 µM"
- molecule: "CC(C)=CCC/C(C)=C/C=C/C(C)=C/C=C/C(C)=C/C=C/C=C(C)/C=C/C=C(C)/C=C/C=C(\\C)CCC=C(C)C"
  experimental target: "D(3) dopamine receptor (Homo sapiens)"
  AC50: "> 30 µM"
- molecule: "Cc1nc([N+](=O)[O-])cn1-c1ccc([N+](=O)[O-])cc1"
  experimental target: "D(3) dopamine receptor (Homo sapiens)"
  AC50: "> 30 µM"

State the recorded AC50 for every item in the following list.
1. Cc1oc(=O)oc1CN1CCN(c2cc3c(cc2F)c(=O)c(C(=O)O)c2n3C(C)S2)CC1 (stereo not given)
2. C=CCN1C[C@H](C(=O)N(CCCN(C)C)C(=O)NCC)C[C@@H]2c3cccc4[nH]cc(c34)C[C@H]21

Response:
1: > 30 µM; 2: 0.0076 µM

// batch mode: one AC50 value per listed entry
1. CC(CC1c2ccccc2CCc2ccccc21)CN(C)C (stereo not given)
2. C[C@]1(O)CC[C@H]2[C@@H]3CCC4=CC(=O)CC[C@]4(C)[C@@]3(F)[C@@H](O)C[C@@]21C
3. Clc1ccc(CCCOCCCN2CCCCC2)cc1
4. C=CCc1ccccc1OCC(O)CNC(C)C (stereo not given)
5. CCC1(CC)C(=O)NCC(C)C1=O (stereo not given)
6. CN(C)/N=N/c1[nH]cnc1C(N)=O

Response:
1. 1.7 µM
2. > 30 µM
3. > 30 µM
4. > 30 µM
5. > 30 µM
6. > 30 µM

Quick batch: AC50 for everything below.
1. CCOC(=O)[C@H](CCc1ccccc1)N[C@@H](C)C(=O)N1C(=O)N(C)C[C@H]1C(=O)O
2. C=CCC1(CC(C)C)C(=O)NC(=O)NC1=O
3. CN1C(=O)C(O)N=C(c2ccccc2)c2cc(Cl)ccc21 (stereo not given)
4. Cc1nnc2n1-c1ccc(Cl)cc1C(c1ccccc1Cl)=NC2
5. CC(CC(c1ccccc1)c1ccccc1)NC(C)(C)C (stereo not given)

Response:
> 30 µM
> 30 µM
> 10 µM
> 30 µM
> 30 µM
